# Tested on: Cells stably expressing Amyloid Precursor Protein (APP)
# assay-details: In vitro BACE cell-based assay (HEK cell assay): Aβ40 in conditioned medium by sandwich ELISA
# experimental-parameters: Homo sapiens, HEK293, 24 h, Aβ40 in conditioned medium after 24 h incubation
readout-name: IC50 (nM)
Use nM as the unit, but write only the number.

Query: Give the measured IC50 of C=CC[C@H](NC(=O)c1cc(F)c(F)cc1F)[C@H](O)CN[C@H]1CC2(CCC2)Oc2ncc(CC(C)(C)C)cc21 .
Result: 3310

Query: For C=CC[C@H](NC(=O)c1cocn1)[C@H](O)CN[C@H]1CC2(CCC2)Oc2ncc(CC(C)(C)C)cc21 , what is its reported IC50?
Result: 1040

Query: Would you kindly share the measured IC50 for C=CC[C@H](NC(=O)[C@@H]1CC1(F)F)[C@H](O)CN[C@H]1CC2(CCC2)Oc2ncc(CC(C)(C)C)cc21 ?
Result: 331

Query: Please report the recorded IC50 for C#CCC(NC(=O)C1CCC(=O)O1)C(O)CNC1CC2(CCC2)Oc2ncc(CC(C)(C)C)cc21 (stereo not shown) .
Result: 133

Query: Quick check: IC50 of CC#CC[C@H](NC(=O)[C@@H](C)OC)[C@H](O)CN[C@H]1CC2(CCC2)Oc2ncc(CC(C)(C)C)cc21 ?
Result: 185

Query: Entry under review: C=CC[C@H](NC(=O)c1cscn1)[C@H](O)CN[C@H]1CC2(CCC2)Oc2ncc(CC(C)(C)C)cc21 . Reported IC50?
Result: 664

Query: Requested read-out: IC50. Entry: C=CC[C@H](NC(=O)[C@@H](F)c1ccccc1)[C@H](O)CN[C@H]1CC2(CCC2)Oc2ncc(CC(C)(C)C)cc21
Result: 1560
